Known Kd of a selection of binders
Target: CCL2_HUMAN (human, UniProt P13500 24-99)
Sequence (P13500 24-99): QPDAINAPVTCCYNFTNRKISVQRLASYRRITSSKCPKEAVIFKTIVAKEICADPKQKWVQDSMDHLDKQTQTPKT
Protocol notes: BLI
Write the value in nM as a bare number.

Tell me its Kd given P1182_AMBMA (other) EPKDDNDYGGGCPFVVLGNGTHAKPAGCSHLCNGAPETLDNIECYNVTEEVAKRMTPGIPYACWLGWCNKGECKRGNRTEVCYRGSEEE as the entry. 5.39

Tell me its Kd given P983_AMBCA (other) EDTGTEDDFDYGNTGCPFPVLGNYKSNMTKPVGCKNKCGSGYEVLNDTTPCYVIDQKVFNNMVPLRQYSKCPLGFCENGECKPNDQAEDCYKGREEQK as the entry. 13.9

Tell me its Kd given P1183_AMBTR (other) EAPKDDFEYDGGCPFVVLDNGTHVKPAGCSHLCNGAPETLDNIECYNVTEEVAKRMTPGIPYACWLGWCSKGECKRDNRTEVCYRGSEEE as the entry. 11.9
